# STUDY_SYSTEM: topo I (Homo sapiens)
# Sequence (P11387 2-765): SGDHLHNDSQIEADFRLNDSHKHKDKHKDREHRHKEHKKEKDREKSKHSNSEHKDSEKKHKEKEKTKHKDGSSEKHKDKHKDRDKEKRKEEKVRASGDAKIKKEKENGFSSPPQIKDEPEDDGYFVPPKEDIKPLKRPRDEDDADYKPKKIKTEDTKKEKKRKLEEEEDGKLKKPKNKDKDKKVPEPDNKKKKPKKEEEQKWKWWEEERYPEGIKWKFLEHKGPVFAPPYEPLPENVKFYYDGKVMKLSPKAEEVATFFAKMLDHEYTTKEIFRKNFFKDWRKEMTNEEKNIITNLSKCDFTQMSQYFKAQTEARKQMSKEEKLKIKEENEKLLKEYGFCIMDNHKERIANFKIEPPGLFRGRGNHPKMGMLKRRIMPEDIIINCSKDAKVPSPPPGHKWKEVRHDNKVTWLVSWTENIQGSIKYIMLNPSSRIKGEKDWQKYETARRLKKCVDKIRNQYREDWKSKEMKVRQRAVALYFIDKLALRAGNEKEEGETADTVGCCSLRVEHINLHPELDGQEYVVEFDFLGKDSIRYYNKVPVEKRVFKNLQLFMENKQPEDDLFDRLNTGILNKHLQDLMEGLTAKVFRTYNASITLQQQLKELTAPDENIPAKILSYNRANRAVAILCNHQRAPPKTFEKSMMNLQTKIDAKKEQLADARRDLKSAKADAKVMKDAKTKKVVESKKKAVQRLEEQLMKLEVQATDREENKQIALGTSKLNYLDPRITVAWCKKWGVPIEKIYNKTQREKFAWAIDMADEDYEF
PROPERTY_MEASURED: IC50 (µM)
One number for each entry, in µM.

*Q* Given the compound C[C@@]12CCC(=O)c3coc(c31)C(=O)c1cc3c(cc12)C(=O)C=CC3=O [HQ, halenaquinone] , write its reported IC50.
*A* 3.58

* * *

# STUDY_SYSTEM: UniProt P11388
# Sequence (P11388 whole entry): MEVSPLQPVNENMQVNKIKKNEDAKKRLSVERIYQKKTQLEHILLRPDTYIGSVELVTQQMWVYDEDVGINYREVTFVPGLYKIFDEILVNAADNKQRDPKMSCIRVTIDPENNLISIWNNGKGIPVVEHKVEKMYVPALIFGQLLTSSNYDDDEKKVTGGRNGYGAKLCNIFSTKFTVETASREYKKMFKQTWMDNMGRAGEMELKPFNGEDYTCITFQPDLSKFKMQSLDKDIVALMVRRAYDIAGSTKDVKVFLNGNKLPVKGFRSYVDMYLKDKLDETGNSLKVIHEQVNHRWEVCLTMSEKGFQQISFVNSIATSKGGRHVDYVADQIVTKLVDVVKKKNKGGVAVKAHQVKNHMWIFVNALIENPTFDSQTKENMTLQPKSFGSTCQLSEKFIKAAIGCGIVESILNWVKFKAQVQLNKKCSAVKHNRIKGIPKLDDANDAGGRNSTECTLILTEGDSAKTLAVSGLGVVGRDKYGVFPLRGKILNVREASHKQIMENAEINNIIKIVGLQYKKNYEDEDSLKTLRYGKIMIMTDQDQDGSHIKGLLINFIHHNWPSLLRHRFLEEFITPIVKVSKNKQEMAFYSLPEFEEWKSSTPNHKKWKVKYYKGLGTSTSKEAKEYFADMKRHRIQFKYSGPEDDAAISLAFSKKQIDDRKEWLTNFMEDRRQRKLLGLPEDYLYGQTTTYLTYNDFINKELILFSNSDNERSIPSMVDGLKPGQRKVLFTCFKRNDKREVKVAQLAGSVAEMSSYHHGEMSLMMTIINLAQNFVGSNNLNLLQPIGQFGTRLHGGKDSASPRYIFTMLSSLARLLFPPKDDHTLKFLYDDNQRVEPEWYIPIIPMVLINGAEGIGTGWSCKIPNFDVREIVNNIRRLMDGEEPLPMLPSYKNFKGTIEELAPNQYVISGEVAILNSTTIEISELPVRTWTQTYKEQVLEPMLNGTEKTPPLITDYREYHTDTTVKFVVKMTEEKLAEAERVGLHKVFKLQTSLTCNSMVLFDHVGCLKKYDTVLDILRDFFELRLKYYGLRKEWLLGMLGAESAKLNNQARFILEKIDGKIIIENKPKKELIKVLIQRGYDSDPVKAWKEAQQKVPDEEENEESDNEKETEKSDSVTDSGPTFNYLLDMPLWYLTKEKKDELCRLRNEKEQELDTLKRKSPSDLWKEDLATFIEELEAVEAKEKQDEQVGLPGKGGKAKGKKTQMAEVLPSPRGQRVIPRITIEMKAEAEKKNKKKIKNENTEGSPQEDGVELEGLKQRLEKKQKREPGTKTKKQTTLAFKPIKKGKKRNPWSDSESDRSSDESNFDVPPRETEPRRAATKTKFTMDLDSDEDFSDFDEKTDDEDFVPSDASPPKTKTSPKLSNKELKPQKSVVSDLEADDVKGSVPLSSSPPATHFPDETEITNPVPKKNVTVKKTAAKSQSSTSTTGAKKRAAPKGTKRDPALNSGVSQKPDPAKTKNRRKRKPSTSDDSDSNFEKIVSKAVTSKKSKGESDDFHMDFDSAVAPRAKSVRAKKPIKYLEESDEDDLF
PROPERTY_MEASURED: pIC50
Numbers only, as −log10 of the molar value.

*Q* Given the molecule C[C@@]12CCC(=O)c3coc(c31)C(=O)c1cc3c(cc12)C(=O)C=CC3=O , write its reported pIC50.
*A* 7.78
